- Protocol: in vitro
- Particulars: dog
Record form. Attribute: CC50 at 24 h. Fill in for each entry.
# output: bare number, implied unit µM

Field request: CC50 at 24 h | item: COc1c(C(C)c2ccccc2)c(=O)n(C)c2c1c(=O)n(-c1ccccc1)c(=O)n2-c1ccccc1 (stereo not drawn) [Compound S2d] 35.6

Field request: CC50 at 24 h | item: CC(=O)n1c(=O)c(C(C)c2ccccc2)c(O)c2c(=O)n(-c3ccccc3)c(=O)n(-c3ccccc3)c21 (stereo not drawn) [Compound S2e] 53.1

Field request: CC50 at 24 h | item: CC(c1ccccc1)c1c(O)c2c(=O)n(-c3ccccc3)c(=O)n(-c3ccccc3)c2[nH]c1=O (stereo not drawn) [Compound S2b] 42.8
